Reference source for all entries: the supplement of paper PMC6555819

Tested on: RARb:RXRa (NR concentration 270 nM, RXRa partner concentration 90 nM)
Assay: PBM binding z-score (relative to random genomic background probes); higher = stronger binding; sequences stand for … in GC…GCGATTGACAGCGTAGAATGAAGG
Result Type: PBM binding z-score
Give your answer as a number; write no unit.

Q: Fill in the blank: the reported PBM binding z-score of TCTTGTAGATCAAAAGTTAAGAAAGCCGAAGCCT is ____.
Ans: -0.12

Q: Next record, please: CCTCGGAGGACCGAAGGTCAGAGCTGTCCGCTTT
Ans: 2.2

Q: Would you mind doing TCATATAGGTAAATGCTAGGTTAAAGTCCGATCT as well?
Ans: 0.735

Q: Here is the next sequence: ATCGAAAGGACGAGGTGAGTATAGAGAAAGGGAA
Ans: 1.31

Q: Also check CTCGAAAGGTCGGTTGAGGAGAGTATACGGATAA
Ans: 2.87

Q: Please answer likewise for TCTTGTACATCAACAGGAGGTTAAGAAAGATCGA
Ans: 0.66

====

Below, each of the sequences is paired with its reported PBM binding z-score value.
System: THRa homodimer (NR concentration 90 nM)
Assay: PBM binding z-score (relative to random genomic background probes); higher = stronger binding; sequences stand for … in GC…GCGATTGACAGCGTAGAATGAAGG
Answer as a number with no unit attached.

# annotated cases, reported PBM binding z-score shown
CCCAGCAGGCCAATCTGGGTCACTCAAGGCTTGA 0.49
CCTCGGACGACAGAAGGTCAGAGCTGTCCGCTTT -0.117
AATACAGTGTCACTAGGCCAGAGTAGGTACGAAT -0.314

Q: Which PBM binding z-score is listed for ATCGAAAGGACGTGAGGTGAGTATACAGAAAGGC ?
Ans: 0.987

Q: Another sequence: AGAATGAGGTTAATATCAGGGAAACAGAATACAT
Ans: 0.795

Q: One more sequence: CCTCGCAGGACAACAGGAGGTCAGAGCTGCCAGA
Ans: 0.912

Q: Another: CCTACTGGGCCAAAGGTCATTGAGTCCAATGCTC
Ans: 0.746

====

PBM binding z-score for assorted sequences
Tested on: RARa homodimer (NR concentration 270 nM)
Assay: PBM binding z-score (relative to random genomic background probes); higher = stronger binding; sequences stand for … in GC…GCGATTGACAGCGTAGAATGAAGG

Sample answers from the record:
CCTTACGGGTCACTGACATGTTATAGCATTTGGA 1.38
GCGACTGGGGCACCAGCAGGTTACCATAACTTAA -0.588
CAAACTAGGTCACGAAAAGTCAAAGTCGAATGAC 0.939
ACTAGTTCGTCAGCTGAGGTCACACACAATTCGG 1.82

Q: Can you look up the measured PBM binding z-score of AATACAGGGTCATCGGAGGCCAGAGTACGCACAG for me?
Ans: 1.32

Q: Same for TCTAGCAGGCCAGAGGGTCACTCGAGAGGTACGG
Ans: -0.335

Q: And then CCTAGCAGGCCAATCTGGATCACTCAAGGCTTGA , what is it?
Ans: -0.695

Q: And CCGAGTAGGTTATGGGGCTTTCAGGCAACGGTGA ?
Ans: 0.153

Q: Similarly, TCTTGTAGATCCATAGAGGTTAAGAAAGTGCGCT ?
Ans: 0.858

Q: Here is the next sequence: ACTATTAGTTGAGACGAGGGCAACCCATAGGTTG
Ans: 0.536

Q: Same for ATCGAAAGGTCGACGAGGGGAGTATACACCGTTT
Ans: 0.328

Q: // same read-out, input: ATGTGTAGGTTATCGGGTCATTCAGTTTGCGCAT
Ans: 2.56

====

Tested on: PPARg DBDmut:RXRa IVT, anti-PPARg (DBD mutation: PPARg1 K132A/R137A, NR concentration 270 nM, RXRa partner concentration 90 nM)
Test: PBM binding z-score (relative to random genomic background probes); higher = stronger binding; sequences stand for … in GC…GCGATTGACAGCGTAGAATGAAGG
Reported PBM binding z-score values for the following sequences.
Lab note: jot down the number only; don't add units.

Example sequences with recorded PBM binding z-score:
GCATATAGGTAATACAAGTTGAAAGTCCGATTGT 1.06
AATATTAGTTGACTTAGGGCAACCGATACGACGC 1.41

Q: Item under review: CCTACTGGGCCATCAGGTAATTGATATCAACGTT . Reported PBM binding z-score?
Ans: -0.379

Q: Follow-up item: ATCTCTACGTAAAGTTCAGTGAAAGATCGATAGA
Ans: 1.64

====

Below is a list of entries, each paired with its recorded PBM binding z-score value.
Tested on: PPARg:RXRa (NR concentration 180 nM, RXRa partner concentration 90 nM)
Test: PBM binding z-score (relative to random genomic background probes); higher = stronger binding; sequences stand for … in GC…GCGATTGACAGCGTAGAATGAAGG
Lab note: jot down the number only; don't add units.

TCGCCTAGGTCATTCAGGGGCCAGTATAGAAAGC 1.91
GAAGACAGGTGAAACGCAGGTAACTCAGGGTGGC 0.681

Q: Requested read-out PBM binding z-score, target or system PPARg:RXRa (NR concentration 180 nM, RXRa partner concentration 90 nM), entry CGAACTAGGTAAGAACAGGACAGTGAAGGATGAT
Ans: 0.928

====

Test system: RARa homodimer (NR concentration 270 nM)
Experiment: PBM binding z-score (relative to random genomic background probes); higher = stronger binding; sequences stand for … in GC…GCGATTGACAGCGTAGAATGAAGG
Result Type: PBM binding z-score

Some sequences with recorded PBM binding z-score:
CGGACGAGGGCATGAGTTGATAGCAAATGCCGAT 0.0592
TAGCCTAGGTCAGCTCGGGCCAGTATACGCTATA -0.994
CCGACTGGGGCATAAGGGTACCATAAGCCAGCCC -0.606
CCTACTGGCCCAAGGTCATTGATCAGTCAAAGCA 0.651
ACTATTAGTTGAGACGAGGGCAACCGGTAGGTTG 0.204

Q: Fill in: PBM binding z-score of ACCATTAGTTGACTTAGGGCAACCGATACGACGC is ___
Ans: 0.526

Q: Could you do the same for CTCGAAAGGTCTTGCTCAGGTGAGTATACCAAAC , please?
Ans: -0.363

Q: Note, next up: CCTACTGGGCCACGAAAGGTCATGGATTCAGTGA
Ans: 1.81

Q: Item: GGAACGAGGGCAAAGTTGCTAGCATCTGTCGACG
Ans: -1.12

Q: Here is the next sequence: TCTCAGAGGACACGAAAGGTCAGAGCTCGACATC
Ans: 1.56

Q: Param item: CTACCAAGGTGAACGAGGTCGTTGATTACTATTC
Ans: 0.278

Q: // repeat for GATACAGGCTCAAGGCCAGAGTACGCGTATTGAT and report
Ans: -0.764

====

System: RXRa DBDmut IVT, anti-RXR (DBD mutation: RXRa K156A/R161A, NR concentration 90 nM)
Assay: PBM binding z-score (relative to random genomic background probes); higher = stronger binding; sequences stand for … in GC…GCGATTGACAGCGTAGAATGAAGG
Classification field: 1 = PBM binding z-score at or over 1; 0 = PBM binding z-score under 1.

Solved entries (count: 5):
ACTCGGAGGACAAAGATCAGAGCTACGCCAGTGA 0
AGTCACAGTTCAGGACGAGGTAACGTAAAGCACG 1
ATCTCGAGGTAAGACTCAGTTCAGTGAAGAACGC 0
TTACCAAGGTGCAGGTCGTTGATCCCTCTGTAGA 0
CTTCAAAGTTCAACTAAGGTAACGTAAAGCACGC 1

Q: hey, is PBM binding z-score for this one >= 1? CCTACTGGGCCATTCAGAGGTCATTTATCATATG
Ans: 1

Q: Now consider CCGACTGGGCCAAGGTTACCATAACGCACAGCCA .
Ans: 0

Q: Same read-out for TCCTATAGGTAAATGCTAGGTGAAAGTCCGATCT ?
Ans: 1

Q: Would you mind doing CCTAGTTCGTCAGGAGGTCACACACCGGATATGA as well?
Ans: 1

Q: Could you do the same for CGTCCAAGGTCATAGGAGGTCAGTGAAGACAGAT , please?
Ans: 1

====

System: LXRa:RXRa (NR concentration 270 nM, RXRa partner concentration 90 nM)
Assay: PBM binding z-score (relative to random genomic background probes); higher = stronger binding; sequences stand for … in GC…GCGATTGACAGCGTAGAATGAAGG
Result Type: PBM binding z-score

TCTAGCAGGCCGGAGGGTCACTCAAGAGGTACGG 0.705
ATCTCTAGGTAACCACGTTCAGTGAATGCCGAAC -0.141

Q: Return reported PBM binding z-score; argument: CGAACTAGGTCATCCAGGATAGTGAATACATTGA
Ans: 2.51

Q: What do you get for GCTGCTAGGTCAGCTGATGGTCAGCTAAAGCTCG ?
Ans: 0.513

Q: Lookup ATCTCTAGGTAAAAGTTCCGTGAATCCCGAGGAT
Ans: 0.395

Q: Please do the same for TCGAGTAGGTTACCAATGGAGCATTCAGCTTTCT as well.
Ans: 0.37

Q: Okay, and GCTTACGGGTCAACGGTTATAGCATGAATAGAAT ?
Ans: 3.55

Q: Item: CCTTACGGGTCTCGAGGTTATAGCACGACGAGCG
Ans: 0.421
